- test description: In vivo tissue distribution test
- Parameters: species or system ICR mice
- experimental conditions: mouse, brain, po; ICR mice, p.o. 100 mg/kg, 0.5 hr; read-out: Brain concentration
Listed next: entries and their corresponding concentration at 0.5 h.
Answer format: number, then unit.

CON=C1CN(c2nc3c(cc2F)c(=O)c(C(=O)O)cn3C2CC2)C[C@@]1(C)CN.Cl [Hydrochloride (Comparative Example 3)]	2510 ng/g

Consider the additional compound presented here.
CO/N=C1/CN(c2nc3c(cc2F)c(=O)c(C(=O)O)cn3C2CC2)C[C@@]1(C)CN [L-aspartate (Example 1)] yielded concentration at 0.5 h of 2280 ng/g

The origin of these recorded values is patent US9751840B2.
